All figures here come from the supplement of paper PMC10567573.

B1: CCDC6 (parent)
chain: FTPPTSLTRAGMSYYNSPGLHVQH

Variants of: B1
protocol: protein stability index of a GFP-peptide fusion (GPS, HEK-293T) (PSI 1-6); higher = more stable;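 also: lentivirally expressed fusions sorted by FACS into six bins by GFP to DsRed ratio, PSI derived from sequencing read proportions per bin multiplied by bin number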
measurement.setup: c terminus: a fixed tail appended
readout.name: protein stability index
Write the value as a bare number.

Entry under review: T5A . Reported protein stability index?
2

Now try N16K .
1.95

Now try T2V .
1.96

Now try A10K .
2.01
